Let's look at some pIC50 data for human LTA4 hydrolase (Homo sapiens) that I collected from the literature.
Give only the number. pIC50 is defined as minus log10 of concentration in molar units.

Specify pIC50 for `OC1CCN(Cc2ccc([C@H]3COc4ccccc4O3)cc2)CC1` , system human LTA4 hydrolase (Homo sapiens).
9.37

Return reported pIC50 for target or system human LTA4 hydrolase (Homo sapiens), item CC(=O)N1CCCN(Cc2ccc(C3COc4ccccc4O3)cc2)CC1 (stereo not shown) .
8.81

Provide pIC50, recorded with human LTA4 hydrolase (Homo sapiens), of `CO[C@@H]1CCN(Cc2ccc3cc(Oc4ccc(-c5ccn[nH]5)cn4)ccc3n2)C1`
8.92

Give measured pIC50 for `CC(=O)N1CCN(CCc2coc3cc(Oc4ccc(-c5ccn[nH]5)cn4)ccc23)CC1` (human LTA4 hydrolase (Homo sapiens)).
9.20

Fill: pIC50 (human LTA4 hydrolase (Homo sapiens)) for this compound COCC1CCCN(Cc2nc3cc(Oc4ccc(-c5ccn[nH]5)cc4)ccc3[nH]2)C1 (stereo not shown)
9.66

Identify measured pIC50 obtained with human LTA4 hydrolase (Homo sapiens) for `c1cc(CCOc2ccc(Oc3ccc(-c4ccn[nH]4)cc3)cc2)ccn1` .
8.49

Fetch value of pIC50 on human LTA4 hydrolase (Homo sapiens) for c1cnc2c(c1)OCC(c1ccc(CN3CCOCC3)cc1)O2 (racemic) .
8.94

Recall the reported pIC50 of `O=C1OCC[C@H]1Oc1ccc(Oc2ccc(-c3ccn[nH]3)cc2)cc1` on human LTA4 hydrolase (Homo sapiens) and write it down.
7.79

Send back human LTA4 hydrolase (Homo sapiens) pIC50 of `COC(=O)c1ccc(C2CCN(Cc3nc4cc(Oc5ccc(-c6ccn[nH]6)cc5)ccc4[nH]3)CC2)cc1` only.
9.40

Give pIC50; test system human LTA4 hydrolase (Homo sapiens); compound `c1cc(-c2ccc(Oc3ccc4[nH]c(CN5C[C@@H]6CC[C@@H](C5)O6)nc4c3)cc2)[nH]n1`
9.89

# return pIC50 of Cn1cnc(CNCc2ccc(C3COc4ccccc4O3)cc2)c1 (racemic) (system: human LTA4 hydrolase (Homo sapiens))
8.44

Lab note: record pIC50 of `O=C(N1CCN(Cc2ccc3cc(Oc4ccc(-c5ccn[nH]5)cn4)ccc3n2)CC1)C1(O)CC1` tested on human LTA4 hydrolase (Homo sapiens).
9.00

Specify the recorded pIC50 for `CN(C)C(=O)N1CCN(Cc2ccc3cc(Oc4ncc(-c5ccn[nH]5)cn4)ccc3c2)CC1` , system: human LTA4 hydrolase (Homo sapiens).
9.09

Would you please give the reported pIC50 of `C[C@H]1COCCN1Cc1nc2cc(Oc3ccc(-c4ccn[nH]4)cc3)ccc2[nH]1` with human LTA4 hydrolase (Homo sapiens)?
9.89

Using human LTA4 hydrolase (Homo sapiens) as the test system, report measured pIC50 of CO[C@@H](C)C(=O)N1CCN(CCC2COc3cc(Oc4ccc(-c5ccn[nH]5)cn4)ccc32)CC1 (stereo partly shown) .
8.92

Give the observed pIC50 of `c1cc(-c2ccc(Oc3ccc4nn(CCN5CCCC5)cc4c3)cc2)[nH]n1` for human LTA4 hydrolase (Homo sapiens).
9.92

Name the value of pIC50 reported for `OCC1CCN(Cc2ccc3cc(Oc4ccc(-c5ccn[nH]5)cn4)ccc3c2)CC1` when tested on human LTA4 hydrolase (Homo sapiens).
9.12

Find the measured pIC50 of `c1cc(-c2ccc(Oc3ccc4nc(CN5CCC6(COC6)C5)ccc4c3)nc2)[nH]n1` with human LTA4 hydrolase (Homo sapiens) as test system.
9.52

Would you please give the reported pIC50 of `CC(=O)N1CCN(CCc2ccc3cc(Oc4ccc(-c5ccn[nH]5)cn4)ccc3n2)CC1` with human LTA4 hydrolase (Homo sapiens)?
9.27

###

Recorded IC50 for molecules tested on human LTA4 hydrolase (Homo sapiens, UniProt P09960), drawn from a number of studies.
Sequence (P09960 whole entry): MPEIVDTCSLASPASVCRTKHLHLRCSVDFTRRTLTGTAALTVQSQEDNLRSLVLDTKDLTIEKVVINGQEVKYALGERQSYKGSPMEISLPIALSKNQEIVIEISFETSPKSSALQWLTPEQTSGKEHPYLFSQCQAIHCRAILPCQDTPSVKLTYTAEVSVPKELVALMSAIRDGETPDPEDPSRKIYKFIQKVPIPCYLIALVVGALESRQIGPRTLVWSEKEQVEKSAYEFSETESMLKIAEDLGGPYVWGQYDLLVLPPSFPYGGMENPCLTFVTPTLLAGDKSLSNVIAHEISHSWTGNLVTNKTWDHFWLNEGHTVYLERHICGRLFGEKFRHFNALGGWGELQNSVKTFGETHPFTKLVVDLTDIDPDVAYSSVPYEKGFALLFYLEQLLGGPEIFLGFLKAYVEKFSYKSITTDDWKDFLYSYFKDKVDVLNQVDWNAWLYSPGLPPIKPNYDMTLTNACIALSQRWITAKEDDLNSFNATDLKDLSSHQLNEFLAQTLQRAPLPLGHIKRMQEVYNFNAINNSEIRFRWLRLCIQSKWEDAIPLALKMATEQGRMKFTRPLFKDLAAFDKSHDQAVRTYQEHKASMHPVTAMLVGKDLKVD
API: label(entry) gives 1.0 if the entry's IC50 is strictly smaller than 0.8 nM; on equality or larger values it gives 0.0.

Lab log: compare recorded IC50 with 0.8 nM; is it strictly lower for `c1cncc(CCOc2ccc(Oc3ccc(-c4ccn[nH]4)cc3)cc2)c1` ?
0.0

# strict comparison: is reported IC50 < 0.8 nM? input = CN(C)CC1CCc2cc(Oc3ccc(-c4ccn[nH]4)cc3)ccc2O1 (stereo not shown)
1.0

Would you kindly verify if IC50 of `c1cc(-c2ccc(Oc3ccc4nn(CCNCC5CCOCC5)cc4c3)cc2)[nH]n1` is strictly less than 0.8 nM?
1.0

# check: IC50 < 0.8 nM for `COCCCC(=O)N1CCN(Cc2ccc3cc(Oc4ccc(-c5ccn[nH]5)cn4)ccc3n2)CC1`
0.0

Regarding `O[C@@H]1CCCN(Cc2ccc3cc(Oc4ccc(-c5ccn[nH]5)cn4)ccc3c2)C1` , kindly confirm whether its IC50 is beneath 0.8 nM.
0.0

Field: below-cutoff. Rule: recorded IC50 strictly less than 0.8 nM. Subject: `CO[C@H](C)C(=O)N1CCN(Cc2cn3cc(Oc4ccc(-c5ccn[nH]5)cc4)ccc3n2)CC1`
0.0

Hello, is IC50 of the following molecule strictly smaller than 0.8 nM? `CN(Cc1nc2cc(Oc3ccc(-c4ccn[nH]4)cc3)ccc2[nH]1)C[C@@H]1CCCO1`
1.0

Consider the molecule `c1cc(-c2ccc(Oc3ccc(OCc4cnco4)cc3)cc2)[nH]n1` . Is its IC50 strictly less than 0.8 nM?
0.0

Determine whether this molecule shows IC50 lower than 0.8 nM (ties excluded): `c1ccc(OC2CCN(Cc3ccc4cc(Oc5ccc(-c6ccn[nH]6)cn5)ccc4n3)CC2)nc1`
0.0

Consider the molecule `COCC(=O)N1CCN(CCc2coc3cc(Oc4ccc(-c5ccn[nH]5)cn4)ccc23)CC1` . Is its IC50 strictly less than 0.8 nM?
0.0

###

Target or system human LTA4 hydrolase (Homo sapiens); metric IC50; compiled from varied reports.

// Input: `CNC(=O)C1CCN(Cc2coc3cc(Oc4ccc(-c5ccn[nH]5)cn4)ccc23)CC1` . Output its IC50 only.
0.49 nM

Supply measured IC50 of `c1cc(-c2ccc(Oc3ccc4[nH]c(CNC[C@H]5CCCO5)nc4c3)cc2)[nH]n1` in your reply.
0.55 nM

Note down IC50 recorded for `CC(=O)N1CCN(Cc2ccc3cc(Oc4ccc(-c5ccn[nH]5)cn4)ccc3n2)[C@H](CO)C1`
0.88 nM

In one line, give reported IC50 of the entry `c1cncc(Cc2nc3cc(Oc4ccc(-c5ccn[nH]5)cc4)ccc3[nH]2)c1` .
0.36 nM

Please supply the value of reported IC50 for the item `CO[C@@H](C)C(=O)N1CCN(Cc2ccc3cc(Oc4ccc(-c5ccn[nH]5)cn4)ccc3n2)CC1`
0.67 nM

Identify the reported IC50 for the following entry. `C[C@H](O)C(=O)N1CCN(Cc2ccc3cc(Oc4ncc(-c5ccn[nH]5)cn4)ccc3c2)CC1`
1.3 nM

For the compound `O=C(C1CCOCC1)N1CCN(Cc2ccc3cc(Oc4ccc(-c5ccn[nH]5)cn4)ccc3n2)CC1` , give its measured IC50 value.
2.3 nM

Consider the compound `CC1(O)CN(Cc2ccc3cc(Oc4ccc(-c5ccn[nH]5)cn4)ccc3c2)C1` . State its measured IC50.
0.53 nM

State its IC50 for this compound: `CCCN(CCO)Cc1nc2cc(Oc3ccc(-c4ccn[nH]4)cc3)ccc2[nH]1`
0.13 nM

Tell me its IC50 given FC(F)(F)C1CCN(Cc2nc3cc(Oc4ccc(-c5ccn[nH]5)cc4)ccc3[nH]2)C1 (stereo not drawn) as the entry.
0.17 nM

// Input: `c1csc(CCOc2ccc(Oc3ccc(-c4ccn[nH]4)cc3)cc2)c1` . Output its IC50 only.
820 nM

Give recorded IC50. `c1cc(-c2ccc(Oc3ccc4nc(CN5CCC5)ccc4c3)cc2)[nH]n1`
0.048 nM

Item O=C(C1C2COCC21)N1CCN(Cc2ccc3cc(Oc4ccc(-c5ccn[nH]5)cn4)ccc3n2)CC1 (stereo not drawn) : provide IC50
6 nM

Provide one value: measured IC50 of c1cc(-c2ccc(Oc3ccc(OCC4COCCN4)cc3)nc2)[nH]n1 (racemic)
0.2 nM

Answer with reported IC50 of O=C(O)C1CCCN(Cc2ccc(C3COc4ccccc4O3)cc2)C1 (stereo not drawn)
2.49 nM

Read the entry c1cnc2c(c1)CCC2Oc1ccc(Oc2ccc(-c3ccn[nH]3)cc2)cc1 (stereo not drawn) and write its reported IC50.
82.4 nM

Entry `c1cc(-c2ccc(Oc3ccc4[nH]c(CN5C[C@H]6CC[C@@H](C5)O6)nc4c3)cc2)[nH]n1` needs its IC50 filled in; supply it.
0.054 nM

Consider the compound `CC(=O)NC[C@@H]1[C@H]2CN(Cc3ccc4cc(Oc5ccc(-c6ccn[nH]6)cn5)ccc4n3)C[C@@H]12` and give its recorded IC50.
0.99 nM

Give IC50 for `c1cc(-c2ccc(Oc3ccc4nc(OCCN5CCOCC5)sc4c3)cc2)n[nH]1`
1.4 nM

Please give measured IC50 of the following entry: `c1ccc2sc(COc3ccc(Oc4ccc(-c5ccn[nH]5)cc4)cc3)nc2c1`
44.2 nM

Tell me measured IC50 for `O=C1NCC[C@@H]1Oc1ccc(Oc2ccc(-c3ccn[nH]3)cc2)cc1` please.
76.7 nM

Tell us which IC50 value is on record for `O=C(CO)N1CCN(Cc2ccc3cc(Oc4ncc(-c5ccn[nH]5)cn4)ccc3c2)CC1`
2.9 nM

Please list IC50 recorded for the compound FC1CCN(Cc2ccc(C3COc4ccccc4O3)cc2)CC1 (stereo not drawn)
2.96 nM

Answer with the recorded IC50 of `CN(C)Cc1ccc2cc(Oc3ccc(-c4ccn[nH]4)cc3)ccc2n1` only.
0.44 nM
